measuredTarget: PopeOR1 (Phthorimaea operculella, UniProt A0A8K1YT58)
Construct: full-length ORF, co-expressed with PopeOrco in Xenopus oocytes; with PopeOrco
Sequence (A0A8K1YT58 1-435): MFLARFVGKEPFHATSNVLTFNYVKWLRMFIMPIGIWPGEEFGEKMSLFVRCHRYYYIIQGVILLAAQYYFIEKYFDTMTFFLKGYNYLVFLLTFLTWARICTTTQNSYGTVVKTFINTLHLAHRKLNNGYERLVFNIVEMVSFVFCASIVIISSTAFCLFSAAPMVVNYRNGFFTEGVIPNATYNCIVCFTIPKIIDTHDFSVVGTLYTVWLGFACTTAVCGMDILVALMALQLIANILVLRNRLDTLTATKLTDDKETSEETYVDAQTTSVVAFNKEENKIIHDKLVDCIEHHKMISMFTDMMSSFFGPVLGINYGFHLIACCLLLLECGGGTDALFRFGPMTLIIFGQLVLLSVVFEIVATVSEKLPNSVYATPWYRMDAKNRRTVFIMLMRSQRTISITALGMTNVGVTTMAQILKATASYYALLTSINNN
Sequence (A0A8K1YT59 1-473 partner): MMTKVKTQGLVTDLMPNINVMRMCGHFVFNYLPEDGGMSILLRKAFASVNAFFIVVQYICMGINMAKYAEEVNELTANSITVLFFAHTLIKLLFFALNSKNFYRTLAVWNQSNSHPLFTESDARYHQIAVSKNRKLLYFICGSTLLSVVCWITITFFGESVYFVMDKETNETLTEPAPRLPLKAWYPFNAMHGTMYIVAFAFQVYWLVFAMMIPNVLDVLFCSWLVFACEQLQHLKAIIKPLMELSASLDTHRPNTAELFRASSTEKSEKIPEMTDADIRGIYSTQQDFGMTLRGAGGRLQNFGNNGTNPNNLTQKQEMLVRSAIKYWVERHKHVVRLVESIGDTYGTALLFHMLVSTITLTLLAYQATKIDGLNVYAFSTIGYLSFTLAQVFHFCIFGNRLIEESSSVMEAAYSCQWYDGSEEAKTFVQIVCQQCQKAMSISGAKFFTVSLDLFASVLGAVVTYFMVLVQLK
assayNotes: two-electrode voltage clamp in Xenopus oocytes
Assignment: determine reported pEC50 for the given molecules.
Give bare numbers, as −log10 of the molar value.

# molecule, val
measured = [
    ("CC/C=C\\C/C=C\\C/C=C/CCCOC(C)=O [(E, Z, Z)-4,7,10–13: OAc]", 4.41),
]

For the next question, use this molecule.
In: Consider the molecule CCCCC/C=C\C/C=C/CCCOC(C)=O [(E, Z)-4,7–13: OAc, trans-4, cis-7-tridecadienyl acetate] and give its measured pEC50.
Out: 4.14

* * *

measuredTarget: PopeOR3 (Phthorimaea operculella, UniProt A0A8K1YT60)
Construct: full-length ORF, co-expressed with PopeOrco in Xenopus oocytes; with PopeOrco
Sequence (A0A8K1YT60 1-404, one chain of several): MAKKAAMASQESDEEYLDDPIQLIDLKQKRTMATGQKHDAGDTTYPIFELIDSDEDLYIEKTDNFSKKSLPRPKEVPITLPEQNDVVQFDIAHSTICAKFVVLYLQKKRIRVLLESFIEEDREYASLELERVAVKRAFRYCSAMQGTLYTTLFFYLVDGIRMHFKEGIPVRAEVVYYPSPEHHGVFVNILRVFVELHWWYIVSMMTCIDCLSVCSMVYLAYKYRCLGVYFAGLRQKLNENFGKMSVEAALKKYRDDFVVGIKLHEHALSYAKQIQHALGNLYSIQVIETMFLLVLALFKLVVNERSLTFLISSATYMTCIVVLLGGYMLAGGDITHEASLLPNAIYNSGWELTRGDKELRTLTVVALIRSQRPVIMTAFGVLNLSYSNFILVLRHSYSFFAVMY
assayNotes: two-electrode voltage clamp in Xenopus oocytes
experimentalReadout: EC50 (µM)
Give bare numbers, in µM.

In: Consider the molecule CC/C=C\C/C=C\C/C=C/CCCOC(C)=O [(E, Z, Z)-4,7,10–13: OAc] and give its measured EC50.
Out: 89
